B1: Receptor-interacting serine/threonine-protein kinase 2, residues 438 to 518; numbered along this chain, O43353 (parent)
chain: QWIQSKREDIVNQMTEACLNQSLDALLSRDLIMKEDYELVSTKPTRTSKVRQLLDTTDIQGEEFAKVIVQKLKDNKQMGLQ

Variants of: B1
method_summary: abundance fitness (aPCA) (normalised: wild type 0, dead -1); higher = more abundant; growth selection in yeast, the domain comes from the species named
particulars: Homo sapiens

>  <mutant_name>
D74S

>  <abundance fitness>
-0.323

$$$$
>  <mutant_name>
D74T

>  <abundance fitness>
-0.285

$$$$
>  <mutant_name>
T47E

>  <abundance fitness>
0.201

$$$$
>  <mutant_name>
L53G

>  <abundance fitness>
-0.433

$$$$
>  <mutant_name>
I68A

>  <abundance fitness>
-0.367

$$$$
>  <mutant_name>
S28K

>  <abundance fitness>
0.095

$$$$
>  <mutant_name>
G61A

>  <abundance fitness>
-0.378

$$$$
>  <mutant_name>
D24C

>  <abundance fitness>
-0.337

$$$$
>  <mutant_name>
L54D

>  <abundance fitness>
-0.452

$$$$
>  <mutant_name>
I68Y

>  <abundance fitness>
-0.568

$$$$
>  <mutant_name>
D55H

>  <abundance fitness>
-0.665

$$$$
>  <mutant_name>
D36A

>  <abundance fitness>
-0.267

$$$$
>  <mutant_name>
L53E

>  <abundance fitness>
-0.536

$$$$
>  <mutant_name>
T57N

>  <abundance fitness>
-0.684

$$$$
>  <mutant_name>
D30Y

>  <abundance fitness>
-0.84

$$$$
>  <mutant_name>
L31A

>  <abundance fitness>
-0.615

$$$$
>  <mutant_name>
T45Q

>  <abundance fitness>
-0.652

$$$$
>  <mutant_name>
L23H

>  <abundance fitness>
-0.174

$$$$
>  <mutant_name>
R51I

>  <abundance fitness>
-0.235

$$$$
>  <mutant_name>
K76E

>  <abundance fitness>
-0.19

$$$$
>  <mutant_name>
Q70D

>  <abundance fitness>
-0.206

$$$$
>  <mutant_name>
L26K

>  <abundance fitness>
-0.374

$$$$
>  <mutant_name>
P44Q

>  <abundance fitness>
-0.169

$$$$
>  <mutant_name>
L27T

>  <abundance fitness>
-0.355

$$$$
>  <mutant_name>
K73M

>  <abundance fitness>
-0.107

$$$$
>  <mutant_name>
S48M

>  <abundance fitness>
-0.142

$$$$
>  <mutant_name>
A65K

>  <abundance fitness>
-0.708

$$$$
>  <mutant_name>
D36L

>  <abundance fitness>
-0.791

$$$$
>  <mutant_name>
F64M

>  <abundance fitness>
-0.047

$$$$
>  <mutant_name>
R51W

>  <abundance fitness>
-0.802

$$$$
>  <mutant_name>
E62A

>  <abundance fitness>
-0.555

$$$$
>  <mutant_name>
D55R

>  <abundance fitness>
-0.162

$$$$
>  <mutant_name>
V40E

>  <abundance fitness>
-0.682

$$$$
>  <mutant_name>
K76D

>  <abundance fitness>
-0.192

$$$$
>  <mutant_name>
K49Q

>  <abundance fitness>
-0.786

$$$$
>  <mutant_name>
K43L

>  <abundance fitness>
-0.008

$$$$
>  <mutant_name>
D74C

>  <abundance fitness>
-0.246

$$$$
>  <mutant_name>
I32V

>  <abundance fitness>
-0.373

$$$$
>  <mutant_name>
S48E

>  <abundance fitness>
0.542

$$$$
>  <mutant_name>
D30K

>  <abundance fitness>
0.06

$$$$
>  <mutant_name>
L27F

>  <abundance fitness>
-0.353

$$$$
